Origin of the recorded values: PubChem BioAssay AID2060511

Property: viability, T/C; scope: individual compounds
# Tested on: 422866-222-R5-J1-PDC spheroids with HUVEC/MSC, viability
# test_method_notes: Anticancer human tumor 422866-222-R5-J1-PDC patient-derived pancreatic adenocarcinoma cell line growth inhibition [GQUAD]
# condition_label: second compound 3.16 µM; first compound 0.1 µM; stronger effect = lower value
property_label: viability, T/C

compound="CCCS(=O)(=O)Nc1ccc(F)c(C(=O)c2c[nH]c3ncc(-c4ccc(Cl)cc4)cc23)c1F + Cc1[nH]c2ccc(F)cc2c1-c1nc2c3cccnc3c3ncccc3c2[nH]1" property_label="viability, T/C" assay_value=52.8%
compound="C=CC(=O)N1CCN(c2nc(=O)n(-c3c(C)ccnc3C(C)C)c3nc(-c4c(O)cccc4F)c(F)cc23)C(C)C1 (stereo not drawn) + Cc1[nH]c2ccc(F)cc2c1-c1nc2c3cccnc3c3ncccc3c2[nH]1" property_label="viability, T/C" assay_value=27.4%
compound="O=c1[nH]cc(F)c(=O)[nH]1 + CN(C)c1ccc(Nc2c3ccc(NC(=O)CCN4CCCC4)cc3nc3cc(NC(=O)CCN4CCCC4)ccc23)cc1" property_label="viability, T/C" assay_value=79.4%

* * *

Property: viability, T/C; scope: individual compounds
# Test system: 422866-222-R5-J1-PDC spheroids with HUVEC/MSC, viability
# test_method_notes: Anticancer human tumor 422866-222-R5-J1-PDC cell line growth inhibition [GQUAD];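 note: spheroids exposed to compounds for seven days before reading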;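 for viability, T/C: percent viability relative to DMSO vehicle control taken as 100%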
# condition_label: second compound 3.16 µM; first compound 0.1 µM; stronger effect = lower value
property_label: viability, T/C (%)

compound="C=CCn1c(=O)c2cnc(Nc3ccc(N4CCN(C)CC4)cc3)nc2n1-c1cccc(C(C)(C)O)n1 + Cc1[nH]c2ccc(F)cc2c1-c1nc2c3cccnc3c3ncccc3c2[nH]1" assay_value=74.5
compound="COc1ncnc(C2CC2)c1-c1ncc2cnn(Cc3ccc(-c4nc(C(F)(F)F)cn4C(C)C)cc3)c2n1 + CN(C)c1ccc(Nc2c3ccc(NC(=O)CCN4CCCC4)cc3nc3cc(NC(=O)CCN4CCCC4)ccc23)cc1" assay_value=102
compound="Nc1ccn(C2OC(CO)C(O)C2(F)F)c(=O)n1 (stereo not given) + Cc1cnc(CNC(=O)c2c(=O)c3ccc(N4CCCN(C)CC4)nc3n3c2sc2ccccc23)cn1" assay_value=88.6
compound="CC1COCCN1c1cc(-c2ccnn2C)c2ccnc(-c3ccn[nH]3)c2n1 (stereo not given) + Cc1cnc(CNC(=O)c2c(=O)c3ccc(N4CCCN(C)CC4)nc3n3c2sc2ccccc23)cn1" assay_value=74.8
compound="C#Cc1c(F)ccc2cc(O)cc(-c3ncc4c(N5CC6CCC(C5)N6)nc(OCC56CCCN5CC(F)C6)nc4c3F)c12 (stereo not given) + Cc1[nH]c2ccc(F)cc2c1-c1nc2c3cccnc3c3ncccc3c2[nH]1" assay_value=75.5
compound="CC1COCCN1c1cc(C2(S(C)(=N)=O)CC2)nc(-c2ccnc3[nH]ccc23)n1 (stereo not given) + Cc1cnc(CNC(=O)c2c(=O)c3ccc(N4CCCN(C)CC4)nc3n3c2sc2ccccc23)cn1" assay_value=96.6
compound="O=C(c1cc(Cc2n[nH]c(=O)c3ccccc23)ccc1F)N1CCN(C(=O)C2CC2)CC1 + Cc1cnc(CNC(=O)c2c(=O)c3ccc(N4CCCN(C)CC4)nc3n3c2sc2ccccc23)cn1" assay_value=73.7
compound="CC(=O)O[C@H]1C(=O)[C@@]2(C)[C@H]([C@H](OC(=O)c3ccccc3)[C@]3(O)C[C@H](OC(=O)[C@H](O)[C@@H](NC(=O)c4ccccc4)c4ccccc4)C(C)=C1C3(C)C)[C@]1(OC(C)=O)CO[C@@H]1C[C@@H]2O + Cc1cnc(CNC(=O)c2c(=O)c3ccc(N4CCCN(C)CC4)nc3n3c2sc2ccccc23)cn1" assay_value=94.5
compound="CC1COCCN1c1cc(C2(O)CC3CCC(C2)O3)c2cnn(-c3ccn[nH]3)c2n1 (stereo not given) + Cc1[nH]c2ccc(F)cc2c1-c1nc2c3cccnc3c3ncccc3c2[nH]1" assay_value=43.8
compound="CC1COCCN1c1cc(C2(O)CC3CCC(C2)O3)c2cnn(-c3ccn[nH]3)c2n1 (stereo not given) + Cc1cnc(CNC(=O)c2c(=O)c3ccc(N4CCCN(C)CC4)nc3n3c2sc2ccccc23)cn1" assay_value=63.5

* * *

# Test system: 422866-222-R5-J1-PDC spheroids with HUVEC/MSC, viability
# test_method_notes: Anticancer human tumor 422866-222-R5-J1-PDC cell line growth inhibition [GQUAD];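 note: spheroids exposed to compounds for seven days before reading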
# condition_label: curve of first compound; second compound 3.16 µM
pIC50: −log10 of the molar value.
property_label: pIC50

compound="C#Cc1c(F)ccc2cc(O)cc(-c3ncc4c(N5CC6CCC(C5)N6)nc(OCC56CCCN5CC(F)C6)nc4c3F)c12 (stereo not drawn) + CN(C)c1ccc(Nc2c3ccc(NC(=O)CCN4CCCC4)cc3nc3cc(NC(=O)CCN4CCCC4)ccc23)cc1" system_under_test="422866-222-R5-J1-PDC spheroids with HUVEC/MSC, viability" property_label=pIC50 assay_value=6.04
compound="O=C(NO)c1cnc(N2CCN(S(=O)(=O)c3ccc4ccccc4c3)CC2)nc1 + Cc1cnc(CNC(=O)c2c(=O)c3ccc(N4CCCN(C)CC4)nc3n3c2sc2ccccc23)cn1" system_under_test="422866-222-R5-J1-PDC spheroids with HUVEC/MSC, viability" property_label=pIC50 assay_value=5.84
compound="C#Cc1c(F)ccc2cc(O)cc(-c3ncc4c(N5CC6CCC(C5)N6)nc(OCC56CCCN5CC(F)C6)nc4c3F)c12 (stereo not drawn) + Cc1[nH]c2ccc(F)cc2c1-c1nc2c3cccnc3c3ncccc3c2[nH]1" system_under_test="422866-222-R5-J1-PDC spheroids with HUVEC/MSC, viability" property_label=pIC50 assay_value=6.13

* * *

# Tested on: 422866-222-R5-J1-PDC spheroids with HUVEC/MSC, viability
# test_method_notes: Anticancer human tumor 422866-222-R5-J1-PDC cell line growth inhibition [GQUAD];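 note: spheroids exposed to compounds for seven days before reading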;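 for viability, T/C: percent viability relative to DMSO vehicle control taken as 100%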
# condition_label: second compound 0.1 µM; first compound 0.316 µM; stronger effect = lower value
Property: viability, T/C; scope: individual molecules
property_label: viability, T/C (%)

molecule="CC(C)(O)C1CCC(Nc2ccc3ncc(-c4cccc(C(F)(F)F)c4)n3n2)CC1 (stereo unspecified) + CN(C)c1ccc(Nc2c3ccc(NC(=O)CCN4CCCC4)cc3nc3cc(NC(=O)CCN4CCCC4)ccc23)cc1" property_label="viability, T/C" unit_string=% assay_value=81.1
molecule="CC1COCCN1c1cc(C2(S(C)(=N)=O)CC2)nc(-c2ccnc3[nH]ccc23)n1 (stereo unspecified) + Cc1cnc(CNC(=O)c2c(=O)c3ccc(N4CCCN(C)CC4)nc3n3c2sc2ccccc23)cn1" property_label="viability, T/C" unit_string=% assay_value=96.2
molecule="CC[C@@]1(O)C(=O)OCc2c1cc1n(c2=O)Cc2cc3c(CN(C)C)c(O)ccc3nc2-1 + CN(C)c1ccc(Nc2c3ccc(NC(=O)CCN4CCCC4)cc3nc3cc(NC(=O)CCN4CCCC4)ccc23)cc1" property_label="viability, T/C" unit_string=% assay_value=48.7
molecule="O=C(c1cc(Cc2n[nH]c(=O)c3ccccc23)ccc1F)N1CCN(C(=O)C2CC2)CC1 + CN(C)c1ccc(Nc2c3ccc(NC(=O)CCN4CCCC4)cc3nc3cc(NC(=O)CCN4CCCC4)ccc23)cc1" property_label="viability, T/C" unit_string=% assay_value=84.9
molecule="CC(C)n1c(=O)n(C)c2cnc3cc(F)c(-c4ccc(OCCCN5CCCCC5)nc4)cc3c21 + Cc1cnc(CNC(=O)c2c(=O)c3ccc(N4CCCN(C)CC4)nc3n3c2sc2ccccc23)cn1" property_label="viability, T/C" unit_string=% assay_value=75
molecule="CC(C)n1c(=O)n(C)c2cnc3cc(F)c(-c4ccc(OCCCN5CCCCC5)nc4)cc3c21 + CN(C)c1ccc(Nc2c3ccc(NC(=O)CCN4CCCC4)cc3nc3cc(NC(=O)CCN4CCCC4)ccc23)cc1" property_label="viability, T/C" unit_string=% assay_value=101
molecule="C=CCn1c(=O)c2cnc(Nc3ccc(N4CCN(C)CC4)cc3)nc2n1-c1cccc(C(C)(C)O)n1 + CN(C)c1ccc(Nc2c3ccc(NC(=O)CCN4CCCC4)cc3nc3cc(NC(=O)CCN4CCCC4)ccc23)cc1" property_label="viability, T/C" unit_string=% assay_value=61.5
molecule="CC(C)n1c(=O)n(C)c2cnc3cc(F)c(-c4ccc(OCCCN5CCCCC5)nc4)cc3c21 + Cc1[nH]c2ccc(F)cc2c1-c1nc2c3cccnc3c3ncccc3c2[nH]1" property_label="viability, T/C" unit_string=% assay_value=112
molecule="O=C(c1cc(Cc2n[nH]c(=O)c3ccccc23)ccc1F)N1CCN(C(=O)C2CC2)CC1 + Cc1cnc(CNC(=O)c2c(=O)c3ccc(N4CCCN(C)CC4)nc3n3c2sc2ccccc23)cn1" property_label="viability, T/C" unit_string=% assay_value=80.5
molecule="CC[C@@]1(O)C(=O)OCc2c1cc1n(c2=O)Cc2cc3c(CN(C)C)c(O)ccc3nc2-1 + Cc1cnc(CNC(=O)c2c(=O)c3ccc(N4CCCN(C)CC4)nc3n3c2sc2ccccc23)cn1" property_label="viability, T/C" unit_string=% assay_value=56.2
molecule="O=C(NO)c1cnc(N2CCN(S(=O)(=O)c3ccc4ccccc4c3)CC2)nc1 + Cc1cnc(CNC(=O)c2c(=O)c3ccc(N4CCCN(C)CC4)nc3n3c2sc2ccccc23)cn1" property_label="viability, T/C" unit_string=% assay_value=93.6
molecule="CCc1c2c(nc3ccc(O)cc13)-c1cc3c(c(=O)n1C2)COC(=O)[C@]3(O)CC + Cc1cnc(CNC(=O)c2c(=O)c3ccc(N4CCCN(C)CC4)nc3n3c2sc2ccccc23)cn1" property_label="viability, T/C" unit_string=% assay_value=34.8
molecule="Nc1ccn(C2OC(CO)C(O)C2(F)F)c(=O)n1 (stereo unspecified) + CN(C)c1ccc(Nc2c3ccc(NC(=O)CCN4CCCC4)cc3nc3cc(NC(=O)CCN4CCCC4)ccc23)cc1" property_label="viability, T/C" unit_string=% assay_value=66.5
molecule="COc1cc(C2c3cc4c(cc3C(OC3OC5COC(C)OC5C(O)C3O)C3COC(=O)C23)OCO4)cc(OC)c1O (stereo unspecified) + Cc1[nH]c2ccc(F)cc2c1-c1nc2c3cccnc3c3ncccc3c2[nH]1" property_label="viability, T/C" unit_string=% assay_value=68.5
molecule="CC(C)(O)C1CCC(Nc2ccc3ncc(-c4cccc(C(F)(F)F)c4)n3n2)CC1 (stereo unspecified) + Cc1cnc(CNC(=O)c2c(=O)c3ccc(N4CCCN(C)CC4)nc3n3c2sc2ccccc23)cn1" property_label="viability, T/C" unit_string=% assay_value=81.2
molecule="COc1cc(C2c3cc4c(cc3C(OC3OC5COC(C)OC5C(O)C3O)C3COC(=O)C23)OCO4)cc(OC)c1O (stereo unspecified) + Cc1cnc(CNC(=O)c2c(=O)c3ccc(N4CCCN(C)CC4)nc3n3c2sc2ccccc23)cn1" property_label="viability, T/C" unit_string=% assay_value=77.6
